Data origin, for the record: patent US20240208992A1

Items are presented alongside their recorded Emax.
biological target: human F508del-CFTR (Homo sapiens, UniProt P13569, DEL508-508); test: F508del-CFTR cell surface expression (corrector activity), DiscoveRx ß-galactosidase complementation chemiluminescence assay in recombinant U2OS cell line; settings: U2OS, in relation to Emax of corrector lumacaftor (=100%); arithmetic mean values;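 note: U2OS cells co-expressing ProLink-tagged F508del-CFTR and a membrane-anchored enzyme acceptor, where more surface CFTR restores β-galactosidase activity measured by chemiluminescence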
Sequence (P13569 with tags, fused parts or gaps DEL508-508): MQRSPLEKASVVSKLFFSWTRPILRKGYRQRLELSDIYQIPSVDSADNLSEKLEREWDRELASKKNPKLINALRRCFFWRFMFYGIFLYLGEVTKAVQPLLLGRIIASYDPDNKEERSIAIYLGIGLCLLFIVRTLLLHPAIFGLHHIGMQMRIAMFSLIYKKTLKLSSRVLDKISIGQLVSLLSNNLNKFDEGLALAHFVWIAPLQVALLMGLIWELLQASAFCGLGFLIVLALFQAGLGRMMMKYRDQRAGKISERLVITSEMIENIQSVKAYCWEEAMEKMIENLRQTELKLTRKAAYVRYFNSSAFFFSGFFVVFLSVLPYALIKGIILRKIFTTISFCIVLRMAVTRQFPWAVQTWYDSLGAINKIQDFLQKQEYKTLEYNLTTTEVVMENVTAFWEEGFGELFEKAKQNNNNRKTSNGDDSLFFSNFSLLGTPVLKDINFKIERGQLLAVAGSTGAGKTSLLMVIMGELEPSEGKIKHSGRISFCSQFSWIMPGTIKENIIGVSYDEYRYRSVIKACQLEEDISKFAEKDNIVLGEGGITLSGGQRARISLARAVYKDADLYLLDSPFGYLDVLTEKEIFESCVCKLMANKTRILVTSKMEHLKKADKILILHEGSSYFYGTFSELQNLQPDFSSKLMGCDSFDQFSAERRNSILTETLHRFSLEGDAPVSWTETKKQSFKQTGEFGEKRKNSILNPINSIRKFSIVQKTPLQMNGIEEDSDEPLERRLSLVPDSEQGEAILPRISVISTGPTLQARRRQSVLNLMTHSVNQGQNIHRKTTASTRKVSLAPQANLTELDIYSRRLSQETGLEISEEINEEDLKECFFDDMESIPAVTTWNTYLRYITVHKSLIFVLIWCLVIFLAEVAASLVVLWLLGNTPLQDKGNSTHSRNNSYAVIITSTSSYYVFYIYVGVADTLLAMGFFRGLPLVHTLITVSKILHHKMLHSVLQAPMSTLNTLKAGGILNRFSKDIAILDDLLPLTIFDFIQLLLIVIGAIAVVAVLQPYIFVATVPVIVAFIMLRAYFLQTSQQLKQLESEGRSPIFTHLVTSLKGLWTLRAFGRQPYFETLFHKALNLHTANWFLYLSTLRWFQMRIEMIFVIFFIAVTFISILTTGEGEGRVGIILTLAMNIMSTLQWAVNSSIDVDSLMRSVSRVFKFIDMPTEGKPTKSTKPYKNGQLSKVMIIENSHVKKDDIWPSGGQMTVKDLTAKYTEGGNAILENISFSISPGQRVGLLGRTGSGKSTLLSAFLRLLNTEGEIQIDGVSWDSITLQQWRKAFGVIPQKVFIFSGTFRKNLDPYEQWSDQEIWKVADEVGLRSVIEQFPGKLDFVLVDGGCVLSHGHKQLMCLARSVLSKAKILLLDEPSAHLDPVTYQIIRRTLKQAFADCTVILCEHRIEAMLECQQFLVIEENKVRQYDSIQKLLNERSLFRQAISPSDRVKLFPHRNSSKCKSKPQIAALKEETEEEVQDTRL
The reply should be a number in %, with the unit left off.

CC(C)C[C@H]1C(=O)N(C)[C@H](Cc2nc(-c3ccc(F)cn3)no2)C(=O)N[C@H](Cc2ccccc2)COc2ccc3ncc(F)cc3c2C(=O)N[C@H](C(=O)NCCc2noc(C3CC3)n2)CC(=O)N1C = 354

Query string: Consider the compound COc1cccc(CCNC(=O)[C@@H]2CC(=O)N(C)[C@@H](CC(C)C)C(=O)N3CCN([S@@](=N)(=O)c4ccccc4)C[C@@H]3C(=O)N[C@H](Cc3ccccc3)COc3ccc4ccccc4c3C(=O)N2)c1 and give its measured Emax.
Result string: 266
